- assay.target: T1, apical domain of cynomolgus CD71 (cynomolgus, UniProt A0A2K5X958 189-383)
- T1 construct: domain: apical domain; also called Cyno apical domain
- T1 sequence (A0A2K5X958 entry or part of it): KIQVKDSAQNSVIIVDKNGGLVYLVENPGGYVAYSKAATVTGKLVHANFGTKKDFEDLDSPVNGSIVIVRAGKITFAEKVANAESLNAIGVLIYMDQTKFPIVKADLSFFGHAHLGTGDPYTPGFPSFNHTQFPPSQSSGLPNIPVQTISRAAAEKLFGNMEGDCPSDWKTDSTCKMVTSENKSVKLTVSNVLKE
- experimental.protocol: primary ELISA, luminescence; note: test concentration or dose not given here
property.label: RLU (RLU)

{"columns": ["binder", "measured.number"],
 "data": [
  ["CD71-binding FN3 domain of SEQ ID NO: 233 (designed binder) MSLPAPKNLVVSRVTEDSARLSWTAPDAAFDSFFIGYLEPQPPGEAIHLSVPGSERSYDLTGLKPGTEYWVQIGGVKGGNWSAPLSAIFTT", "4.78e+06"],
  ["CD71-binding FN3 domain of SEQ ID NO: 224 (designed binder) MSLPAPKNLVVSRVTEDSARLSWTAPDAAFDSFEIGYWENAYKGEAIVLTVPGSERSYDLTGLKPGTEYVVFIGGVKGGGWSGPLSAIFTT", "4.79e+06"],
  ["CD71-binding FN3 domain of SEQ ID NO: 229 (designed binder) MSLPAPKNLVVSRVTEDSARLSWTAPDAAFDSFSIMYAEQKVNGEAIVLTVPGSERSYDLTGLKPGTEYLVLIWGVKGGGRSLPLSAIFTT", "4.52e+06"],
  ["CD71-binding FN3 domain of SEQ ID NO: 228 (designed binder) MSLPAPKNLVVSRVTEDSARLSWTAPDAAFDSFEIGYWENAYKGEAIVLTVPGSERSYDLTGLKPGTEYVVFIGGVKGGVWSKPLSVIFTT", "4.86e+06"],
  ["CD71-binding FN3 domain of SEQ ID NO: 225 (designed binder) MSLPAPKNLVVSRVTEDSARLSWTAPDAAFDSFEIGYFENLYLGEAIVLTVPGSERSYDLTGLKPGTEYWVQIGGVKGGNWSAPLSAIFTT", "4.22e+06"],
  ["CD71-binding FN3 domain of SEQ ID NO: 223 (designed binder) MSLPAPKNLVVSRVTEDSARLSWTAPDAAFDSFEIAYFERTWFGEAIVLTVPGSERSYDLTGLKPGTEYWVAIGGVKGGLWSLPLSVIFTT", "4.11e+06"]
]}

Origin of measurements: patent US20260151494A1
